- Run description: NCI Yeast Anticancer Drug Screen. Data for the bub3 strain (AID 167)
- Setup conditions: S. cerevisiae bub3 mutant strain, at 50.0 µM (retest, dose inferred, filed as 5.0), active compounds read high
The panel holds about 79,000 compounds, 15% with a hit somewhere; the sample as a whole holds those more often.
Value kind: growth inhibition (%)

Cc1cc(Cl)cc2c1OCN(C)C2; 94
O=C(N=Nc1cccc(Cl)c1)NNc1cccc(Cl)c1; 99
CCOC(=O)/C=C\c1c(Cl)n(-c2ccccc2)c(=O)n(-c2ccccc2)c1=O; 99
Cn1c2c(c3ccccc31)CCN(CCN1CCN(c3ccccc3)CC1)C2=O; 43
COc1ccc(C(c2cc3c(cc2O)OCO3)N2CCCC2)c(OC)c1 (centres undefined); 99
CCCCCCCCCCOC1C(C(O)CNCCCN(C)C)OC2OC3(CCCCC3)OC21 (centres undefined); 98
Oc1ccc(N(Cc2ccccc2)Cc2ccccc2)cc1; 89
COc1ccc2c(C#N)cc3c(c[n+](C)c4ccccc34)c2c1; 65
Oc1ccc[nH]c1=S; -2
CC(=O)n1c(=S)n(C(C)=O)c2ccccc21; 76
CCS(=O)(=O)/C=C/c1ccncc1; 2
O=[N+]([O-])c1c(Cl)ccc2nsnc12; 96
O=CC(O)CN1CCCC1 (centres undefined); 25
CCCCCCCCCCCC(=O)N(CCCCCCCCC)CC(O)C(O)C(OC1OC(CO)C(O)C(O)C1O)C(O)CO (centres undefined); 96
CCOC(=O)/C(Cl)=C(\C)Nc1nc2c(ccc3ccccc32)s1; 94
COC(=O)C(=O)/C=C(/O)c1ccc(OC)cc1; 24
N#CC(C#N)=C1C(Br)=CCc2ccccc21; 99
O=[N+]([O-])c1ccc(SCc2ccccc2)c2nonc12; 97
N#CSCCSCc1ccc(Cl)cc1; 99

* * *

Listed next: entries and their corresponding growth inhibition.
- Run description: NCI Yeast Anticancer Drug Screen. Data for the bub3 strain (AID 167)
- Setup conditions: S. cerevisiae bub3 mutant strain, at 5.0 µM (retest, dose inferred, filed as 0.5), active compounds read high
About 79,000 compounds went through this panel and 15% of them were active in at least one assay; those are over-represented in the sample as a whole.
Value kind: growth inhibition (%)

C(=C/c1ccccc1)/C=N/Nc1ccccc1; -72
COc1ccc(C(=O)C(CN2CCOCC2)CN2CCOCC2)cc1; 10
C=C(C)[P+](C)(c1ccccc1)c1ccccc1; -18
O=C(OCc1ccccc1)c1ccccc1Cl; 10
CCOC(=O)C(=O)CC(=O)C(Br)C(Br)c1ccc(Cl)cc1 (stereo not given); 92

* * *

Listed next: entries and their corresponding growth inhibition.
- Run description: NCI Yeast Anticancer Drug Screen. Data for the cln2 rad14 strain (AID 165);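 further: 0% = growth equal to vehicle treated cultures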
- Setup conditions: S. cerevisiae cln2 rad14 strain, at 5.0 µM (retest, dose inferred, filed as 0.5), active compounds read high
Compounds without any hit were thinned out: in the full panel of roughly 79,000, 15% have a hit.
Value kind: growth inhibition (%)

Cn1c(=O)c2c3oc(=O)cc(O)c3c(=O)n3c4ccccc4n(c1=O)c23; 34
O=C(CNC(=O)Nc1ccc(NC(=O)NCC(=O)Nc2ccc(C3=NCCN3)cc2)cc1)Nc1ccc(C2=NCCN2)cc1; 5
CCOC(=O)C1=C(c2ccccc2)c2ccccc2OC1C(=O)O (configuration not stated); 2
CCCCCCCCCCCCNC(=O)C[n+]1cccc(C(N)=O)c1; -6
CC(=O)O[C@H]1CC[C@]2(C)C34OC3C[C@]3(C)[C@@H](C(C)=O)CC[C@H]3[C@]43C=C[C@@]2(C1)C1C(=O)OC(=O)C13 (some centres not stated); 0
CCC(C)(C)c1ccc(OCCO)c([N+](=O)[O-])c1; 13
[N-]=[N+]=CC(=O)C1(c2ccccc2)OC1c1ccccc1 (configuration not stated); -21
